B1: LINE1-full (parent)
chain: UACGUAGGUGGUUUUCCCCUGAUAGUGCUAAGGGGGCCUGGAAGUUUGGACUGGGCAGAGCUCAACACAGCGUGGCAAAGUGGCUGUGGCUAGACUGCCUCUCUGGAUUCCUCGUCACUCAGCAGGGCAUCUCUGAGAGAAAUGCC

Variants of: B1
Assay: self-cleavage, relative activity (ratio to wild type); higher = more cleavage; in vitro, sequencing; the parent is a self-cleaving ribozyme
Grouping key: self-cleavage. Bins: band 1: < 0.3; band 2: ≥ 0.3 and < 1; band 3: ≥ 1

# MUTANT ID, CLASS LABEL
records = [
    ("U14C A57G", "band 2"),
    ("U26A G35A", "band 2"),
    ("A65G U119A", "band 1"),
    ("A43G U62A", "band 1"),
    ("G55C A129U", "band 1"),
    ("A43U G86U", "band 1"),
    ("C37G U119C", "band 3"),
    ("U87C A142G", "band 1"),
    ("C3U A30G", "band 3"),
    ("U91C U96A", "band 1"),
    ("U87A C99U", "band 1"),
    ("U29A A121C", "band 2"),
    ("G55A C131G", "band 2"),
    ("U9A A43G", "band 3"),
    ("G60A C99A", "band 1"),
    ("A50G A64C", "band 2"),
    ("A78U A140U", "band 3"),
    ("G25A A107G", "band 2"),
    ("U81C C101U", "band 3"),
    ("A30G C116U", "band 3"),
    ("U5C U9C", "band 3"),
    ("A59U A129G", "band 2"),
    ("U39C G114A", "band 3"),
    ("U39A U96C", "band 1"),
    ("A67U U108C", "band 1"),
    ("U13C A65U", "band 1"),
    ("A57C U102A", "band 1"),
    ("U15A U91A", "band 2"),
    ("A65G U112A", "band 1"),
    ("U47C A117U", "band 3"),
    ("C116A A141U", "band 3"),
    ("G35U A78U", "band 3"),
    ("A92G A107U", "band 1"),
    ("G40A A129C", "band 3"),
    ("C76U C101A", "band 3"),
    ("G88A U130C", "band 1"),
    ("U26C A124U", "band 3"),
    ("U13C A92G", "band 1"),
    ("U81C U112C", "band 3"),
    ("U26C G122U", "band 3"),
    ("A77G A117G", "band 3"),
    ("U91C U104A", "band 2"),
    ("U20C U29A", "band 2"),
    ("U12G A67U", "band 1"),
    ("A43G U81A", "band 3"),
    ("A50G U119C", "band 3"),
    ("G25A U108C", "band 3"),
    ("A92U U132A", "band 2"),
    ("A24U A67G", "band 2"),
    ("U46A A50G", "band 2"),
    ("A50U U73A", "band 2"),
    ("U1C U26A", "band 2"),
    ("A57G U132G", "band 2"),
    ("G54A A117C", "band 3"),
    ("U47C A124G", "band 3"),
    ("G7U U62C", "band 1"),
    ("A69U U109G", "band 1"),
    ("A59G C71A", "band 1"),
    ("U15C C90A", "band 1"),
    ("A107G G126A", "band 3"),
    ("A94G A141U", "band 1"),
    ("A50G G139U", "band 2"),
    ("U20A U102C", "band 3"),
    ("A136U", "band 3"),
    ("U20C G72C", "band 3"),
    ("G60A A69G", "band 1"),
    ("G89U C123G", "band 1"),
    ("U45C U130C", "band 3"),
    ("C95A U112C", "band 1"),
    ("U47A A67G", "band 2"),
    ("G34C", "band 3"),
    ("A94G A129U", "band 1"),
    ("A22U U108C", "band 3"),
    ("U14A A59G", "band 1"),
    ("U5C G89U", "band 1"),
    ("A22U G126A", "band 3"),
    ("A67G G86A", "band 1"),
    ("U14G U26A", "band 3"),
    ("C68U U130C", "band 1"),
    ("U52C A107U", "band 3"),
    ("U87G A129G", "band 1"),
    ("A124C A141G", "band 3"),
    ("C51U A142C", "band 3"),
    ("U15C A24C", "band 3"),
    ("G80U A124G", "band 3"),
    ("G41A A69U", "band 1"),
    ("C68U A136G", "band 2"),
]
